Values compiled from the supplement of paper PMC10883282.

Test system: HT1080
procedure_details: relative viability vs DMSO control (72 h) (fraction); higher = more viable cells
study_conditions: 10 µM
readout_name: relative viability
Answers are plain numbers.

Known relative viability results, listed for orientation:
>>> print(df.to_string())
                  compound_structure_string        readout_name  observed
0  C[C@@H]1COCCN1c1cc(-c2ccnn2C)c2ccnc(-c3ccn[nH]3)c2n1  relative viability     0.155
1  CCc1cc2c(cc1N1CCC(N3CCOCC3)CC1)C(C)(C)c1[nH]c3cc(C#N)ccc3c1C2=O  relative viability      1.02
2  CN1CCC(COc2cnc(-c3cccc(Cn4nc(-c5cccc(C#N)c5)ccc4=O)c3)nc2)CC1  relative viability     0.862
3  O=C(Cc1ccc(-c2ccc(OCCN3CCOCC3)cc2)cn1)NCc1ccccc1  relative viability    0.0365
4  N#CC[C@H](C1CCCC1)n1cc(-c2ncnc3[nH]ccc23)cn1  relative viability      1.02
5  COCc1c(-c2cc3cc(C)cc(OC)c3s2)c2c(N)ncnn2c1CN1CCNC(=O)C1  relative viability      1.06

Give measured relative viability for every item shown.
1. COc1c(OCCCN2CCOCC2)ccc2c1N=C(NC(=O)c1cnc(N)nc1)N1CCN=C21
2. CC(=O)Nc1cccc(-n2c(=O)n(C3CC3)c(=O)c3c(Nc4ccc(I)cc4F)n(C)c(=O)c(C)c32)c1
3. Cc1cnc(Nc2ccc(OCCN3CCCC3)cc2)nc1Nc1cccc(S(=O)(=O)NC(C)(C)C)c1
4. COc1cc2c(Oc3ccc4[nH]c(C)cc4c3F)ncnc2cc1OCCCN1CCCC1
5. C[C@@H]1CCN(C(=O)CC#N)C[C@@H]1N(C)c1ncnc2[nH]ccc12
6. CC1(C)CNc2cc(NC(=O)c3cccnc3NCc3ccncc3)ccc21
7. C[C@]1(O)C[C@@H](c2nc(-c3ccc4ccc(-c5ccccc5)nc4c3)c3c(N)nccn32)C1

1: 0.224; 2: 0.296; 3: 0.0298; 4: 1.06; 5: 1.02; 6: 0.976; 7: 0.881

* * *

Test system: SYO-1
procedure_details: relative viability vs DMSO control (72 h) (fraction); higher = more viable cells
study_conditions: 3.333 µM
Heads up, the class ranges for relative viability are zone 1 = under 0.6, zone 2 = from 0.6 up to 0.7, zone 3 = 0.7 and over

In [3]: df
Out[3]:
                                   compound  category
0  CC[C@H](Nc1ncnc2[nH]cnc12)c1nc2cccc(F)c2c(=O)n1-c1ccccc1 [Idelalisib]    zone 3
1  C=CC(=O)N1CCC[C@@H](n2nc(-c3ccc(Oc4ccccc4)cc3)c3c(N)ncnc32)C1 [Ibrutinib]    zone 1
2  COCc1c(-c2cc3cc(C)cc(OC)c3s2)c2c(N)ncnn2c1CN1CCNC(=O)C1 [Rogaratinib]    zone 1
3  C[C@@H]1CCN(C(=O)CC#N)C[C@@H]1N(C)c1ncnc2[nH]ccc12 [Tofacitinib]    zone 3

Returns: class label. Input: O=C(Cc1ccc(-c2ccc(OCCN3CCOCC3)cc2)cn1)NCc1ccccc1 [KX2-391] zone 1

Returns: class label. Input: CC(C)(C)c1cc(NC(=O)Nc2ccc(-c3cn4c(n3)sc3cc(OCCN5CCOCC5)ccc34)cc2)no1 [Quizartinib] zone 2

* * *

Answer each item with its documented relative viability.
System: SW982
procedure_details: relative viability vs DMSO control (72 h) (fraction); higher = more viable cells
study_conditions: 0.01372 µM
Give bare numbers.

Known relative viability results, listed for orientation:
                                   compound        readout_name  observed
0  Cc1nc(NC(=O)N2CCC[C@H]2C(N)=O)sc1-c1ccnc(C(C)(C)C(F)(F)F)c1 [Alpelisib]  relative viability     0.997
1  CC(C)(C)c1cc(NC(=O)Nc2ccc(-c3cn4c(n3)sc3cc(OCCN5CCOCC5)ccc34)cc2)no1 [Quizartinib]  relative viability      1.06
2  CNC(=O)c1ccc(-c2cnc3ncc(Cc4ccc5ncccc5c4)n3n2)cc1F [Capmatinib]  relative viability      1.06
3  O=C(Cc1ccc(-c2ccc(OCCN3CCOCC3)cc2)cn1)NCc1ccccc1 [KX2-391]  relative viability      1.04

Please look at the following compound next.
Name the recorded relative viability for "C[C@@H]1COCCN1c1cc(-c2ccnn2C)c2ccnc(-c3ccn[nH]3)c2n1" . 0.989

* * *

Test system: RD
procedure_details: relative viability vs DMSO control (72 h) (fraction); higher = more viable cells
study_conditions: 0.04115 µM
readout_name: relative viability

Known relative viability results, listed for orientation:
compound_structure_string	relative viability
CN1CCC(COc2cnc(-c3cccc(Cn4nc(-c5cccc(C#N)c5)ccc4=O)c3)nc2)CC1	1.13
C=CC(=O)N1CCC[C@@H](n2nc(-c3ccc(Oc4ccccc4)cc3)c3c(N)ncnc32)C1	1.12
CNC(=O)c1ccc(-c2cnc3ncc(Cc4ccc5ncccc5c4)n3n2)cc1F	1.12
Cc1ccc(NC(=O)c2ccc(CN3CCN(C)CC3)cc2)cc1Nc1nc(-c2cccnc2)cs1	0.995
CC1(C)CNc2cc(NC(=O)c3cccnc3NCc3ccncc3)ccc21	0.989

Give measured relative viability for every item shown.
1. COc1cc2/c(=N/c3ccc(Br)cc3F)nc[nH]c2cc1OCC1CCN(C)CC1
2. COCc1c(-c2cc3cc(C)cc(OC)c3s2)c2c(N)ncnn2c1CN1CCNC(=O)C1

1. 1.11
2. 1.12

Give measured relative viability for every item shown.
1. CN1CCN(c2ccc3nc(-c4c(N)c5c(F)cccc5[nH]c4=O)[nH]c3c2)CC1
2. CC(C)(C)c1cc(NC(=O)Nc2ccc(-c3cn4c(n3)sc3cc(OCCN5CCOCC5)ccc34)cc2)no1
3. CO[C@H]1C[C@@H]2CC[C@@H](C)[C@@](O)(O2)C(=O)C(=O)N2CCCC[C@H]2C(=O)O[C@H]([C@H](C)C[C@@H]2CC[C@@H](OP(C)(C)=O)[C@H](OC)C2)CC(=O)[C@H](C)/C=C(\C)[C@@H](O)[C@@H](OC)C(=O)[C@H](C)C[C@H](C)/C=C/C=C/C=C/1C
4. C[C@]1(O)C[C@@H](c2nc(-c3ccc4ccc(-c5ccccc5)nc4c3)c3c(N)nccn32)C1

1: 0.995; 2: 1.06; 3: 0.75; 4: 1.03

* * *

Tested on: SK-LMS-1
procedure_details: relative viability vs DMSO control (72 h) (fraction); higher = more viable cells
study_conditions: 0.01372 µM
readout_name: relative viability

Known relative viability results, listed for orientation:
                  compound_structure_string        readout_name  observed
0  O=C(Nc1cnn2ccc(N3CCC[C@@H]3c3cc(F)ccc3F)nc12)N1CC[C@H](O)C1  relative viability      1.07
1     Cc1cc(C)c(/C=C2\C(=O)Nc3ccccc32)[nH]1  relative viability     0.897

Please look at the following compound next.
Name the recorded relative viability for "CN1CCN(c2ccc3nc(-c4c(N)c5c(F)cccc5[nH]c4=O)[nH]c3c2)CC1" . 1.09

* * *

Tested on: KHOS-NP
procedure_details: relative viability vs DMSO control (72 h) (fraction); higher = more viable cells
study_conditions: 0.00017 µM
Answer each item with its documented relative viability.
One number for each entry.

Known relative viability results, listed for orientation:
compound_structure_string	assay_target	relative viability
CCCS(=O)(=O)Nc1ccc(F)c(C(=O)c2c[nH]c3ncc(-c4ccc(Cl)cc4)cc23)c1F	KHOS-NP	1.08
Cc1cnc(Nc2ccc(OCCN3CCCC3)cc2)nc1Nc1cccc(S(=O)(=O)NC(C)(C)C)c1	KHOS-NP	1.09
N#CC[C@H](C1CCCC1)n1cc(-c2ncnc3[nH]ccc23)cn1	KHOS-NP	1.04
COc1cc2c(Oc3ccc4[nH]c(C)cc4c3F)ncnc2cc1OCCCN1CCCC1	KHOS-NP	1.08

Give measured relative viability for every item shown.
1. CO[C@H]1C[C@@H]2CC[C@@H](C)[C@@](O)(O2)C(=O)C(=O)N2CCCC[C@H]2C(=O)O[C@H]([C@H](C)C[C@@H]2CC[C@@H](OP(C)(C)=O)[C@H](OC)C2)CC(=O)[C@H](C)/C=C(\C)[C@@H](O)[C@@H](OC)C(=O)[C@H](C)C[C@H](C)/C=C/C=C/C=C/1C
2. CC(=O)Nc1cccc(-n2c(=O)n(C3CC3)c(=O)c3c(Nc4ccc(I)cc4F)n(C)c(=O)c(C)c32)c1

1.11
1.08

* * *

Tested on: KHOS-240S
procedure_details: relative viability vs DMSO control (72 h) (fraction); higher = more viable cells
study_conditions: 0.00017 µM
Answer each item with its documented relative viability.
Numbers only.

Known relative viability results, listed for orientation:
In [3]: df
Out[3]:
                  compound_structure_string  observed
0  N#CC[C@H](C1CCCC1)n1cc(-c2ncnc3[nH]ccc23)cn1     0.984
1  Cc1cnc(Nc2ccc(OCCN3CCCC3)cc2)nc1Nc1cccc(S(=O)(=O)NC(C)(C)C)c1      1.07
2  Cc1nc(NC(=O)N2CCC[C@H]2C(N)=O)sc1-c1ccnc(C(C)(C)C(F)(F)F)c1      1.05
3  CCCS(=O)(=O)Nc1ccc(F)c(C(=O)c2c[nH]c3ncc(-c4ccc(Cl)cc4)cc23)c1F      1.09
4  CC[C@H](Nc1ncnc2[nH]cnc12)c1nc2cccc(F)c2c(=O)n1-c1ccccc1       1.1

Give measured relative viability for every item shown.
1. Cn1cc(-c2cc3c(N4CCN(c5ncc([C@@](C)(N)c6ccc(F)cc6)cn5)CC4)ncnn3c2)cn1
2. O=C(Cc1ccc(-c2ccc(OCCN3CCOCC3)cc2)cn1)NCc1ccccc1
3. COc1cc2c(Oc3ccc4[nH]c(C)cc4c3F)ncnc2cc1OCCCN1CCCC1

1.03
1.07
1.06

Give measured relative viability for every item shown.
1. C[C@]1(O)C[C@@H](c2nc(-c3ccc4ccc(-c5ccccc5)nc4c3)c3c(N)nccn32)C1
2. Cc1ccc(F)c(NC(=O)Nc2ccc(-c3cccc4[nH]nc(N)c34)cc2)c1
3. COc1cc2nccc(Oc3ccc(NC(=O)Nc4cc(C)on4)c(Cl)c3)c2cc1OC
4. COc1c(OCCCN2CCOCC2)ccc2c1N=C(NC(=O)c1cnc(N)nc1)N1CCN=C21
5. CC1(C)CNc2cc(NC(=O)c3cccnc3NCc3ccncc3)ccc21

[1.08, 1.06, 1.07, 1.09, 0.972]
